tested-on: Sigma non-opioid intracellular receptor 1 (Homo sapiens)
Sequence (Q99720 whole entry): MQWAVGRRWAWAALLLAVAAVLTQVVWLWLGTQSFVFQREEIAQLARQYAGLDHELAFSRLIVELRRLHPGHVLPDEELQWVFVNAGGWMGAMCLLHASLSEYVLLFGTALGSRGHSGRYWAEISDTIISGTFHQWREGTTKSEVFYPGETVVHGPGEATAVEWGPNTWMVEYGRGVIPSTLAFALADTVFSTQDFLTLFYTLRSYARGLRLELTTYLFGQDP
experimental-protocol: DRUGMATRIX: Sigma1 radioligand binding (ligand: [3H] Haloperidol)
Assay type: cell membranes, Jurkat, Membrane
measurement-parameters: jurkat; Not Active = under 50% inhibition at 10 µM
readout: IC50

compound="N#Cc1ccc(C(c2ccc(C#N)cc2)n2cncn2)cc1 [LETROZOLE]" observed_measurement="Not Active"
compound="Cc1c(C)c2c(c(C)c1O)CCC(C)(CN1CCN(c3cc(N4CCCC4)nc(N4CCCC4)n3)CC1)O2 (configuration not stated)" observed_measurement="Not Active"
compound="N=C(N)NC(=O)Cc1c(Cl)cccc1Cl [GUANFACINE]" observed_measurement="Not Active"
compound="CO[C@H]1/C=C/O[C@@]2(C)Oc3c(C)c(O)c4c(O)c(c(/C=N/N5CCN(C6CCCC6)CC5)c(O)c4c3C2=O)NC(=O)/C(C)=C\\C=C\\[C@H](C)[C@H](O)[C@@H](C)[C@@H](O)[C@@H](C)[C@H](OC(C)=O)[C@@H]1C [RIFAPENTINE]" observed_measurement="Not Active"
compound="Cc1cc2c(OCC(CNC(C)(C)C)OC(=O)c3ccccc3)cccc2[nH]1 (configuration not stated) [BOPINDOLOL]" observed_measurement="Not Active"
compound="C[C@H]1C[C@@H]2[C@H]([C@@H](O)C[C@@]3(C)[C@H]2CC[C@]3(O)C(=O)CO)[C@@]2(C)C=CC(=O)C=C12 [METHYLPREDNISOLONE]" observed_measurement="Not Active"
compound="CNC1(c2ccccc2Cl)CCCCC1=O (configuration not stated) [KETAMINE]" observed_measurement="Not Active"
compound="CC(=O)O[C@H]1C(=O)[C@@]2(C)[C@H]([C@H](OC(=O)c3ccccc3)[C@]3(O)C[C@H](OC(=O)[C@H](O)[C@@H](NC(=O)c4ccccc4)c4ccccc4)C(C)=C1C3(C)C)[C@]1(OC(C)=O)CO[C@@H]1C[C@@H]2O [PACLITAXEL]" observed_measurement="Not Active"
compound="COc1ccc2[nH]cc(CCNC(C)=O)c2c1 [MELATONIN]" observed_measurement="Not Active"
compound="CCN1CCC[C@H]1CNC(=O)c1cc(S(N)(=O)=O)ccc1OC [LEVOSULPIRIDE]" observed_measurement="Not Active"
compound="C[C@@H]1C[C@H]2[C@@H]3CCC4=CC(=O)C=C[C@]4(C)[C@@]3(F)[C@@H](O)C[C@]2(C)[C@@]1(O)C(=O)CO [DEXAMETHASONE]" observed_measurement="Not Active"
compound="CCCCOc1cc(CC2CNC(=O)N2)ccc1OC (configuration not stated) [RO-201724]" observed_measurement="Not Active"
compound="Cc1cccc(C)c1OCC(C)N (configuration not stated) [MEXILETINE]" observed_measurement="Not Active"
compound="CS(=O)(=O)c1ccc([C@@H](O)[C@@H](CO)NC(=O)C(Cl)Cl)cc1 [THIAMPHENICOL]" observed_measurement="Not Active"
compound="CC[C@H]1CN2CCc3cc(OC)c(OC)cc3[C@@H]2C[C@@H]1C[C@H]1NCCc2cc(OC)c(OC)cc21 [EMETINE]" observed_measurement="Not Active"
compound="COc1cc([C@@H]2c3cc4c(cc3[C@@H](O[C@@H]3O[C@@H]5CO[C@@H](C)O[C@H]5[C@H](O)[C@H]3O)[C@H]3COC(=O)[C@H]23)OCO4)cc(OC)c1O [ETOPOSIDE]" observed_measurement="Not Active"
compound="CC(C)c1cccc(C(C)C)c1O [PROPOFOL]" observed_measurement="Not Active"
compound="COC(=O)CCc1ccc(OCC(O)CNC(C)C)cc1 (configuration not stated) [ESMOLOL]" observed_measurement="Not Active"
compound="CN/C(=N\\CCSCc1nc[nH]c1C)NC#N [CIMETIDINE]" observed_measurement="Not Active"
compound="CC(C(=O)O)c1cccc(Oc2ccccc2)c1 (configuration not stated) [FENOPROFEN]" observed_measurement="Not Active"
compound="NC(=O)C[S+]([O-])C(c1ccccc1)c1ccccc1 (configuration not stated) [MODAFINIL]" observed_measurement="Not Active"
compound="Cn1c(=O)c2[nH]cnc2n(C)c1=O.Cn1c(=O)c2[nH]cnc2n(C)c1=O.NCCN [AMINOPHYLLINE]" observed_measurement="Not Active"
compound="Cc1ccc(NC(=O)c2ccc(CN3CCN(C)CC3)cc2)cc1Nc1nccc(-c2cccnc2)n1 [IMATINIB]" observed_measurement="Not Active"
compound="CCC1(C)CC(=O)NC1=O (configuration not stated) [ETHOSUXIMIDE]" observed_measurement="Not Active"
compound="CC(C)=CCC/C(C)=C/CO [GERANIOL]" observed_measurement="Not Active"
compound="C#C[C@]1(OC(C)=O)CC[C@H]2[C@@H]3CCC4=C[C@@H](OC(C)=O)CC[C@@H]4[C@H]3CC[C@@]21C [ETHYNODIOL DIACETATE]" observed_measurement="Not Active"
compound="NCCCC(O)(P(=O)(O)O)P(=O)(O)O [ALENDRONIC ACID]" observed_measurement="Not Active"
compound="CC(C)(C)NC(=O)[C@H]1CC[C@H]2[C@@H]3CC[C@H]4NC(=O)C=C[C@]4(C)[C@H]3CC[C@]12C [FINASTERIDE]" observed_measurement="Not Active"
compound="C[C@H]1O[C@@H](n2cc(F)c(=O)[nH]c2=O)[C@H](O)[C@@H]1O [DOXIFLURIDINE]" observed_measurement="Not Active"
compound="C=CCc1ccc(O)c(OC)c1 [EUGENOL]" observed_measurement="Not Active"
compound="O=c1cnn([C@@H]2O[C@H](CO)[C@@H](O)[C@H]2O)c(=O)[nH]1 [6-AZAURIDINE]" observed_measurement="Not Active"
compound="CC(C)Cc1ccc([C@@H](C)C(=O)O)cc1 [(R)-IBUPROPHEN]" observed_measurement="Not Active"
